Measured pIC50, listed per entry for reference.
- MEASURED ON: JAK2 (Homo sapiens, UniProt O60674)
- Construct: All enzymes only contain the catalytic domain; His (N); purchased Carna Bioscience, Inc; host or cells: baculovirus expression system
- Sequence (O60674 849-1124 limits assumed): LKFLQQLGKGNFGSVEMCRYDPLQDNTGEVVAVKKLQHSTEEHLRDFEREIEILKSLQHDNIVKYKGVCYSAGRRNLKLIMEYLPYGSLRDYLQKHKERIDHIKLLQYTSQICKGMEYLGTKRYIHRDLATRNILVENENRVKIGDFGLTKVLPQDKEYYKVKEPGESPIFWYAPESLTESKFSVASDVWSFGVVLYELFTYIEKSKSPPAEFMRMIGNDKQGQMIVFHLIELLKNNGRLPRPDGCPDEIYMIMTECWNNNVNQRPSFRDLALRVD
- ASSAY OVERVIEW: In vitro enzyme assay (cell-free HTRF kinase assay), JAK2
- Type: biochemical
- EXPERIMENTAL SETUP: catalytic domain, His-tag; ATP 10 μM, SRCtide 25 nM, reaction 30 min
pIC50: −log10 of the molar value.

COMPOUND: CC(C)NC(=O)c1cc(Cl)c(C(=O)n2ccc3c(NC(=O)C4CC4)nccc32)c(Cl)c1
pIC50: > 6.30
--
COMPOUND: O=C(NC1CC1)c1cc(Cl)c(C(=O)c2c[nH]c3c(NC(=O)C4CC4)nccc23)c(Cl)c1
pIC50: > 6.30
--
COMPOUND: O=C(Nc1cc(Cl)c(C(=O)n2ccc3c(NC(=O)C4CC4)nccc32)c(Cl)c1)NC1CC1
pIC50: > 6.30
--
COMPOUND: O=C(NCC1CCCNC1)c1cc(Cl)c(C(=O)n2ccc3c(NC(=O)C4CC4)nccc32)c(Cl)c1 (stereo not drawn)
pIC50: > 7.00
--
COMPOUND: Cc1noc(C)c1-c1cc(Cl)c(C(=O)n2ccc3c(NC(=O)C4CC4)nccc32)c(Cl)c1
pIC50: > 7.00
--
COMPOUND: NCCNC(=O)c1cc(Cl)c(C(=O)n2ccc3c(NC(=O)C4CC4)nccc32)c(Cl)c1
pIC50: > 7.00
--
COMPOUND: CN(C)CCNC(=O)c1cc(F)c(C(=O)c2c[nH]c3c(NC(=O)C4CC4)nccc23)c(F)c1
pIC50: > 6.30
--
COMPOUND: N#Cc1cc(Cl)c(C(=O)c2c[nH]c3c(NC(=O)C4CC4)nccc23)c(Cl)c1
pIC50: > 7.30
--
COMPOUND: O=C(NCCO)Nc1cc(Cl)c(C(=O)n2ccc3c(NC(=O)C4CC4)nccc32)c(Cl)c1
pIC50: > 6.30
--
COMPOUND: O=C(NCCCO)c1cc(F)c(C(=O)c2c[nH]c3c(NC(=O)C4CC4)nccc23)c(F)c1
pIC50: > 6.30
--
COMPOUND: N#Cc1cc(Cl)c(C(=O)n2ccc3c(NC(=O)C4CC4)nccc32)c(Cl)c1
pIC50: > 6.30
--
COMPOUND: CCNC(=O)c1cc(F)c(C(=O)c2c[nH]c3c(NC(=O)C4CC4)nccc23)c(F)c1
pIC50: > 6.00
--
COMPOUND: CC(=O)Nc1cc(Cl)c(C(=O)c2c[nH]c3c(NC(=O)C4CC4)nccc23)c(Cl)c1
pIC50: > 6.30
--
COMPOUND: O=C(c1c(Cl)cc(CO)cc1Cl)c1c[nH]c2c(NC(=O)C3CC3)nccc12
pIC50: > 6.00
--
COMPOUND: O=C(c1c(Cl)cccc1Cl)c1c[nH]c2cnc(NC(=O)C3CC3)cc12
pIC50: > 7.00

====

Measured IC50, listed per entry for reference.
- MEASURED ON: JAK2 (Homo sapiens)
- Construct: All enzymes only contain the catalytic domain; His (N)
- ASSAY OVERVIEW: In vitro enzyme assay (cell-free HTRF kinase assay), JAK2
- EXPERIMENTAL SETUP: catalytic domain, His-tag; ATP 10 μM, SRCtide 25 nM, reaction 30 min
OBSERVABLE: IC50

CHEMICAL SMILES: O=C(NCCc1cccnc1)c1cc(Cl)c(C(=O)n2ccc3c(NC(=O)C4CC4)nccc32)c(Cl)c1
DATA VALUE: < 500 nM

CHEMICAL SMILES: CCNCc1cc(Cl)c(C(=O)c2c[nH]c3c(NC(=O)C4CC4)nccc23)c(Cl)c1
DATA VALUE: < 500 nM

CHEMICAL SMILES: CC(=O)Nc1nccc2c(C(=O)c3c(Cl)cc(C(=O)NCCN4CCCCC4)cc3Cl)c[nH]c12
DATA VALUE: < 1000 nM

CHEMICAL SMILES: N#Cc1cc(F)c(C(=O)c2c[nH]c3c(NC(=O)C4CC4)nccc23)c(F)c1
DATA VALUE: < 100 nM

CHEMICAL SMILES: CNC(=O)c1cc(Cl)c(C(=O)c2c[nH]c3c(NC(=O)C4CC4)nccc23)c(Cl)c1
DATA VALUE: < 500 nM

CHEMICAL SMILES: CCNC(=O)c1cc(Cl)c(C(=O)n2ccc3c(NC(=O)C4CC4)nccc32)c(Cl)c1
DATA VALUE: < 1000 nM

CHEMICAL SMILES: O=C(c1c(F)cccc1Cl)c1c[nH]c2cnc(NC(=O)C3CC3)cc12
DATA VALUE: < 50 nM

CHEMICAL SMILES: O=C(Nc1nccc2c1ccn2C(=O)c1c(Cl)cc(CO)cc1Cl)C1CC1
DATA VALUE: < 500 nM

CHEMICAL SMILES: O=C(NCCCN1CCOCC1)c1cc(Cl)c(C(=O)n2ccc3c(NC(=O)C4CC4)nccc32)c(Cl)c1
DATA VALUE: < 1000 nM

CHEMICAL SMILES: CCNCc1cc(Cl)c(C(=O)n2ccc3c(NC(=O)C4CC4)nccc32)c(Cl)c1
DATA VALUE: < 500 nM

CHEMICAL SMILES: O=C(NCCOCCO)c1cc(Cl)c(C(=O)c2c[nH]c3c(NC(=O)C4CC4)nccc23)c(Cl)c1
DATA VALUE: < 1000 nM

CHEMICAL SMILES: O=C(Nc1cc2c(ccn2C(=O)c2c(Cl)cccc2Cl)cn1)C1CC1
DATA VALUE: < 50 nM

CHEMICAL SMILES: O=C(Nc1nccc2c1ccn2C(=O)c1c(Cl)cc(CNCCCO)cc1Cl)C1CC1
DATA VALUE: < 500 nM

CHEMICAL SMILES: O=C(NCCn1cccc1)c1cc(Cl)c(C(=O)n2ccc3c(NC(=O)C4CC4)nccc32)c(Cl)c1
DATA VALUE: < 1000 nM

CHEMICAL SMILES: CCOCCCNC(=O)c1cc(F)c(C(=O)c2c[nH]c3c(NC(=O)C4CC4)nccc23)c(F)c1
DATA VALUE: < 1000 nM
